target: UniProtKB G4M0P7; experiment: biochemical; conditions: p97 enzyme; Suppl. Fig. 11D; read-out: S. mansoni IC50
Sequence (G4M0P7 entry or part of it): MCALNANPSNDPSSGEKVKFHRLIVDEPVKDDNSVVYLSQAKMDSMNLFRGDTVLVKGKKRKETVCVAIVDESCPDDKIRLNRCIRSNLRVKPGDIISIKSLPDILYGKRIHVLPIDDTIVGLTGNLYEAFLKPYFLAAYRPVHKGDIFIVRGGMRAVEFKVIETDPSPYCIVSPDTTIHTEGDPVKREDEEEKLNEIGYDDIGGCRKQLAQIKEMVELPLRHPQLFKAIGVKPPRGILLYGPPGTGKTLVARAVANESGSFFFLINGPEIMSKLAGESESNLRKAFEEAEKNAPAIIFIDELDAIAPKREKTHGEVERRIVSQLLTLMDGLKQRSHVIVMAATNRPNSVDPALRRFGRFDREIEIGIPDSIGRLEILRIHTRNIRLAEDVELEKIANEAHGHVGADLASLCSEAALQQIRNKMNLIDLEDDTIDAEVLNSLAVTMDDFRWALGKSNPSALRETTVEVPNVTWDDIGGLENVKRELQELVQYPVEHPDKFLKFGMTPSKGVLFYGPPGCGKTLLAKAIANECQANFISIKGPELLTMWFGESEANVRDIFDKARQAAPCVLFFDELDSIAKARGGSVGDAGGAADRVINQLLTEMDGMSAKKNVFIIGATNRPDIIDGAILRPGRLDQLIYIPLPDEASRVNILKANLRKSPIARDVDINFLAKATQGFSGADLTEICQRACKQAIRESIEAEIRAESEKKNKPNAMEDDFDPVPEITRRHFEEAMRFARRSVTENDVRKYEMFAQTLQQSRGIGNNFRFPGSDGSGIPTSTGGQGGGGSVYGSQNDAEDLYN
property_measured: pIC50
Here pIC50 is given on a logarithmic scale as minus log10 of the concentration in mol/L.

Query: Provide one value: measured pIC50 of O=C(C#Cc1ccccc1)Nc1ccc2oc(-c3ccccn3)nc2c1
Reply: 5.68

Query: Provide one value: measured pIC50 of O=C(C#Cc1ccccc1)Nc1ccc2oc(-c3ccccc3)nc2c1
Reply: 5.42

Query: Provide one value: measured pIC50 of O=C(C#Cc1ccccc1)Nc1ccc2oc(-c3ccncc3)nc2c1
Reply: 5.85

----------
test system: HepG2 cells; experiment: HepG2 cytotoxicity assay (Cell Titer Glo 2.0); assay type: cell-based, human; settings: Homo sapiens, HepG2, read-out: HepG2 IC50
property_measured: pIC50
Here pIC50 is given on a logarithmic scale as minus log10 of the concentration in mol/L.

Query: Provide one value: measured pIC50 of Cc1ccc(-c2nc3cc(NC(=O)C#Cc4ccncc4)ccc3o2)nc1
Reply: 5.74

Query: Provide one value: measured pIC50 of Cc1cccnc1-c1nc2cc(NC(=O)C#Cc3ccncc3)ccc2o1
Reply: 5.92

Query: Provide one value: measured pIC50 of O=C(C#Cc1ccncc1)Nc1ccc2oc(-c3ccccn3)nc2c1
Reply: 5.92

Query: Provide one value: measured pIC50 of Cc1ccnc(-c2nc3cc(NC(=O)C#Cc4ccncc4)ccc3o2)c1
Reply: 5.80

Query: Provide one value: measured pIC50 of O=C(C#Cc1ccccc1)Nc1ccc2oc(-c3ccccn3)nc2c1
Reply: 5.02

Query: Provide one value: measured pIC50 of Cc1cccc(-c2nc3cc(NC(=O)C#Cc4ccncc4)ccc3o2)n1
Reply: 5.85
